Data provenance is ChEMBL document CHEMBL5550100.

system: Protein cereblon/Son of sevenless homolog 1 (Homo sapiens, UniProt Q07889+Q96SW2)
Sequence (Q07889 whole entry, looked up): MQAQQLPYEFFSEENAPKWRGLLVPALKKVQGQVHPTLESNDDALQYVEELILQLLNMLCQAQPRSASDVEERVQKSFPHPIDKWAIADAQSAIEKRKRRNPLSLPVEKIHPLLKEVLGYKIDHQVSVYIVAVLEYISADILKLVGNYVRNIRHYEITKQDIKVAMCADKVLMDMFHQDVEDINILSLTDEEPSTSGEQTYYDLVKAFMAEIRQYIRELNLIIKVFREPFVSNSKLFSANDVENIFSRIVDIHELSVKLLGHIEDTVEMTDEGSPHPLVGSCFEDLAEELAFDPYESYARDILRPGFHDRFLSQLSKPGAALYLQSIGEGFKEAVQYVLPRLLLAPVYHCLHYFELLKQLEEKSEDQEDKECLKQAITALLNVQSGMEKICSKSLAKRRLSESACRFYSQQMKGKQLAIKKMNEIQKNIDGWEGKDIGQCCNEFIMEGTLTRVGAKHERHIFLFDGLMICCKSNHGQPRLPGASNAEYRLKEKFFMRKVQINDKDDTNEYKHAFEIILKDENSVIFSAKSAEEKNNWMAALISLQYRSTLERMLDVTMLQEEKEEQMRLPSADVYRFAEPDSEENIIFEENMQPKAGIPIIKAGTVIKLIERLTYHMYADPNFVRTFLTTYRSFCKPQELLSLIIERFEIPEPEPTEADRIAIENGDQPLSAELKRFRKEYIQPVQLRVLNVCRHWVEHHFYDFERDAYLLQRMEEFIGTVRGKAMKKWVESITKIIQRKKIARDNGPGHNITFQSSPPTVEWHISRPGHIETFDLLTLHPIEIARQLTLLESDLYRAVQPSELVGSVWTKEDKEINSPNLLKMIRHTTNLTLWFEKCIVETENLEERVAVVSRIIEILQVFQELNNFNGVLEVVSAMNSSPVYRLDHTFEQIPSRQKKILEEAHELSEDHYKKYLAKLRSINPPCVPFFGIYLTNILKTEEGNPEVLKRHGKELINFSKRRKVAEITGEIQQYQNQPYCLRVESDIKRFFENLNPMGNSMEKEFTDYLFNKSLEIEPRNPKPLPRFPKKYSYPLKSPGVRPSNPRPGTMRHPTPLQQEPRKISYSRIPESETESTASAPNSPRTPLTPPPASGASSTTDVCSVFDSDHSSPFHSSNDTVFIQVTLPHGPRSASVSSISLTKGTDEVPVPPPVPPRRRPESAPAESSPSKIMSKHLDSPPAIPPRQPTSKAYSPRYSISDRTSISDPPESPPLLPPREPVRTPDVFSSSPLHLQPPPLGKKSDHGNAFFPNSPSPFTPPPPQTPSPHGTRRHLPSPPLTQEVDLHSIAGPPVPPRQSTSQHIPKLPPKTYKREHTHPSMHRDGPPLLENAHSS
Sequence (Q96SW2 whole entry, looked up): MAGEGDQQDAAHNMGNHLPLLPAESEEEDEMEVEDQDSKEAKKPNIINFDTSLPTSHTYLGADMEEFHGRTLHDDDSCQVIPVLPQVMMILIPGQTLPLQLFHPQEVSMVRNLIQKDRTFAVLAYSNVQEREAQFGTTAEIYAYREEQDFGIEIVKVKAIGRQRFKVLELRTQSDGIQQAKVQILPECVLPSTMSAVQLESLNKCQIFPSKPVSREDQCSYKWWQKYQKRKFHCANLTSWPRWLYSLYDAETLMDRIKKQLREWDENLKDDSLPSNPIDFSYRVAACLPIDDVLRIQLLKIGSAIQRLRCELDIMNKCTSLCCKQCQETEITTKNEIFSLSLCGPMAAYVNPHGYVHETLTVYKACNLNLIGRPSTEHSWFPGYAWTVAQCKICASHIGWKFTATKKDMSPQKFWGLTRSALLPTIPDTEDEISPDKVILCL
experiment.summary: PROTAC activity at CRBN/SOS1 in human A549 cells assessed as protein degradation at 1 uM incubated for 24 hrs by immunoblot analysis relative to control
Assay type: cell-based
endpoint.name: Activity (%)
One number for each entry, in %.

compound	Activity [%]
COc1cc2nc(C)nc(N[C@H](C)c3cc(N)cc(C(F)(F)F)c3)c2cc1O[C@H]1CCN(C(=O)CCCCCCCNc2ccc3c(c2)C(=O)N(C2CCC(=O)NC2=O)C3=O)C1 (stereo partly specified)	20.9

Provide the reported Activity of each entry below, same order.
1. COc1cc2nc(C)nc(N[C@H](C)c3cc(N)cc(C(F)(F)F)c3)c2cc1O[C@H]1CCN(C(=O)CC(=O)Nc2cccc3c2C(=O)N(C2CCC(=O)NC2=O)C3)C1 (stereo partly specified)
2. COc1cc2nc(C)nc(N[C@H](C)c3cc(N)cc(C(F)(F)F)c3)c2cc1O[C@H]1CCN(C(=O)CCC(=O)Nc2cccc3c2C(=O)N(C2CCC(=O)NC2=O)C3)C1 (stereo partly specified)
3. COc1cc2nc(C)nc(N[C@H](C)c3cc(N)cc(C(F)(F)F)c3)c2cc1O[C@H]1CCN(C(=O)CCCCC(=O)Nc2ccc3c(c2)C(=O)N(C2CCC(=O)NC2=O)C3)C1 (stereo partly specified)
4. COc1cc2nc(C)nc(N[C@H](C)c3cc(N)cc(C(F)(F)F)c3)c2cc1O[C@H]1CCN(C(=O)CCCCCCC(=O)Nc2ccc3c(c2)C(=O)N(C2CCC(=O)NC2=O)C3)C1 (stereo partly specified)

[11.6, 9.6, 12.2, 37.6]

Requested read-out: Activity. Entry: COc1cc2nc(C)nc(N[C@H](C)c3cc(N)cc(C(F)(F)F)c3)c2cc1O[C@H]1CCN(C(=O)CC(=O)Nc2cccc3c2CN(C2CCC(=O)NC2=O)C3=O)C1 (stereo partly specified)
4.7
